Entries below carry reported pKi on UniProt P28223.
Sequence (P28223 whole entry): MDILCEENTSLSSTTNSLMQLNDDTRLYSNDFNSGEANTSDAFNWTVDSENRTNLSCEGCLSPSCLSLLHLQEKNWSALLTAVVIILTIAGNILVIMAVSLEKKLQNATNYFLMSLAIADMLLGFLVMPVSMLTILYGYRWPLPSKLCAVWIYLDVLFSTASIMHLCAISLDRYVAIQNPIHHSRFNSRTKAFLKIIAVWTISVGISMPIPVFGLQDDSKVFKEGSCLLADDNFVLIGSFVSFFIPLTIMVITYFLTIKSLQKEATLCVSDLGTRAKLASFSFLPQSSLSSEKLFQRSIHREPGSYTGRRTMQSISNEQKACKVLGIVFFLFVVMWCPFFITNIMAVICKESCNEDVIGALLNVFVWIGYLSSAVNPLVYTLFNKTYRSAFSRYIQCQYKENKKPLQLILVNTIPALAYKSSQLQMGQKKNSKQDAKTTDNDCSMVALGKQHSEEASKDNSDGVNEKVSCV
Give bare numbers, as −log10 of the molar value.

Example results:
>  <molecule>
COc1cc2c(cc1OC)-c1c(OC)c(OC(C)C)cc3c1[C@H](C2)N(C)CC3

>  <measured>
6.23

$$$$
>  <molecule>
COc1cc2c(cc1OC)-c1c(OC)c(OCc3ccc(Br)cc3)cc3c1[C@H](C2)N(C)CC3

>  <measured>
7.70

$$$$
>  <molecule>
CCCC(C)Oc1cc2c3c(c1OC)-c1cc(OC)c(OC)cc1C[C@@H]3N(C)CC2 (stereo partly specified)

>  <measured>
6.61

$$$$
>  <molecule>
CCOc1cc2c3c(c1OC)-c1cc(OC)c(OC)cc1C[C@@H]3N(C)CC2

>  <measured>
6.29

$$$$
>  <molecule>
CCCCCOc1cc2c3c(c1OC)-c1cc(OC)c(OC)cc1C[C@@H]3N(C)CC2

>  <measured>
6.86

$$$$

Provide the reported pKi of each entry below, same order.
1. CCCCOc1cc2c3c(c1OC)-c1cc(OC)c(OC)cc1C[C@@H]3N(C)CC2
2. CCCCC(C)Oc1cc2c3c(c1OC)-c1cc(OC)c(OC)cc1C[C@@H]3N(C)CC2 (stereo partly specified)
3. C=CCOc1cc2c3c(c1OC)-c1cc(OC)c(OC)cc1C[C@@H]3N(C)CC2
4. COc1cc2c(cc1OC)-c1c(OC)c(OCc3ccccc3)cc3c1[C@H](C2)N(C)CC3
5. CCC(C)Oc1cc2c3c(c1OC)-c1cc(OC)c(OC)cc1C[C@@H]3N(C)CC2 (stereo partly specified)
6. COc1cc2c(cc1OC)-c1c(OC)c(OCC3CC3)cc3c1[C@H](C2)N(C)CC3

1: 6.73; 2: 6.81; 3: 7.00; 4: 7.66; 5: 6.53; 6: 6.62
